# Tested On: T1, Rpn1 regulatory subunit 1 (Rpn1 394-568), as used for NMR titration and ITC (human, UniProt Q13200 394-568)
# T1 construct: source: E. coli BL21 (DE3), purified (size exclusion chromatography)
# T1 sequence (Q13200 394-568): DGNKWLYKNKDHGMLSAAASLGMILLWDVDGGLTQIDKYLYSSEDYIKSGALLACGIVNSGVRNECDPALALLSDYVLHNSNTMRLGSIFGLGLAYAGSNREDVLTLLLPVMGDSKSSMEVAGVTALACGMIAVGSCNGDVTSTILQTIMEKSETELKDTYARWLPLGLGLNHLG
# Assay: ITC; VP-ITC, 25°C, NMR buffer; 20 µM Rpn1 regulatory subunit 1 in the cell, 25 injections of 6 µL of 400 µM UBL domain; one-site fit
# Condition Context: both partners purified
Measured Endpoint: Kd (µM)
Respond numerically; units are µM and should not be typed.

Input line: // lookup Kd for UBL domain of hUBLCP1 (UBLCP1 1-81), as used for NMR and ITC (domain or fragment, human, UniProt Q8WVY7 1-81, looked up, UBL domain of human UBLCP1, residues 1-81; 15N-labelled (M9 medium) for the NMR titration; also called 15N-labeled UBL domain; source: E. coli BL21 (DE3), purified (size exclusion chromatography)) MALPIIVKWGGQEYSVTTLSEDDTVLDLKQFLKTLTGVLPERQKLLGLKVKGKPAENDVKLGALKLKPNTKIMMMGTREES
Output line: 10.3
